ASSAYED_SYSTEM: Pumilio-1 PUF domain wild type (human, UniProt Q14671 828-1168)
Sequence (Q14671 828-1168): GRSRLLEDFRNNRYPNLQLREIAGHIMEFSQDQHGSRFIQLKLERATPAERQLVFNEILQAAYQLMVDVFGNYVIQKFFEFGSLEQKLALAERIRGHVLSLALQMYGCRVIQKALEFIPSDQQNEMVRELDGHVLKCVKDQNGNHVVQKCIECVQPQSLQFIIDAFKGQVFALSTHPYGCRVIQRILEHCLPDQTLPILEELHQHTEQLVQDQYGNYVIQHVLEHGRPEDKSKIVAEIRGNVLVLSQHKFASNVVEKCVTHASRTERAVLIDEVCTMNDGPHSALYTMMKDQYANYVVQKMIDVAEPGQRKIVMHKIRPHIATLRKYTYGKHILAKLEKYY
PROCEDURE_DETAILS: EMSA; 10 mM HEPES pH 7.3, 50 mM NaCl, 2 mM DTT, 0.05% Tween 20, 0.1 mg/ml BSA, 0.1 mg/ml yeast tRNA; ~10 nM RNA, 0-1 uM protein, 1 h on ice; 1.2% agarose gel, 1x TBE, room temperature
SETUP_CONDITIONS: protein: recombinant; tags: N-terminal GST (pGEX-6P-1) removed by HRV3C protease; label: 5' 32P
pKd: −log10 of the molar value.
MEASUREMENT_NAME: pKd

Fill in reported pKd for this entry: GGUAAGUGUAAAUAGUCUGCAU (ssRNA) [wild-type NRE RNA]
~7.10
